test system: L1210; assay: Antiproliferative activity against mouse L1210 cells after 48 hrs by coulter counting analysis; format: functional, cell-based; details: L1210, 48 h
pIC50: −log10 of the molar value.
parameterMeasured: pIC50

1: C[C@H]1CNCCN1S(=O)(=O)c1cccc2cnccc12
2: C[C@@H]1O[C@@H](O[C@@H]2[C@@H](O)[C@H](OCCc3ccc(O)c(O)c3)O[C@H](CO)[C@H]2OC(=O)/C=C/c2ccc(O)c(O)c2)[C@H](O)[C@H](O)[C@H]1O [ACETOSIDE]
Which one would you say has the larger pIC50 value: 1 , or 2 ? Give the label of your selection. 2
(2: 4.89, 1: 4.63)
